target_or_test_system: T1, mouse IL-25 expressed with a C-terminal myc-myc-hexahistidine tag (mouse)
T1 construct: also called Mouse IL-25-MMH; mIL-25-MMH
T1 chain: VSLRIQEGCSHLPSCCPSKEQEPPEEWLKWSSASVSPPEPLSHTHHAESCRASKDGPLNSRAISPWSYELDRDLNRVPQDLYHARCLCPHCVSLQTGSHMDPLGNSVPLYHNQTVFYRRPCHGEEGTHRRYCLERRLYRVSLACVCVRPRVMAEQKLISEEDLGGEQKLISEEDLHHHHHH
assay_summary: SPR Biacore, antibody captured, 37C;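 further: Real-time sensorgrams of IL-25-MMH binding to purified anti-IL-25 antibodies, rate constants obtained by fitting a 1:1 binding model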
assay_endpoint: Kd (nM)
# number only, unit nM dropped from output

INSERT INTO measurements (binder, unit_tag, quantitative_result) VALUES
  ('H4H10871P (antibody, human IgG4, V domains shown, H4H prefix = human IgG4 Fc) VH: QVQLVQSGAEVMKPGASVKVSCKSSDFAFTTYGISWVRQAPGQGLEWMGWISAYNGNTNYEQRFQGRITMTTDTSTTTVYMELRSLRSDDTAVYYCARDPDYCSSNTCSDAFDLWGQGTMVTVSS VL: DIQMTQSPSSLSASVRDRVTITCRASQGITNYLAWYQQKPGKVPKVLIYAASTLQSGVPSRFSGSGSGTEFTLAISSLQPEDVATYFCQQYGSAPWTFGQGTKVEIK', 'nM', 0.258),
  ('H4H10905P (antibody, human IgG4, V domains shown, H4H prefix = human IgG4 Fc) VH: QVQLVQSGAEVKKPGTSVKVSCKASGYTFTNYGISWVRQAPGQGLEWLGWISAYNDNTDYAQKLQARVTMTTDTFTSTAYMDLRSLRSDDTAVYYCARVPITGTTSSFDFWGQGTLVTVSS VL: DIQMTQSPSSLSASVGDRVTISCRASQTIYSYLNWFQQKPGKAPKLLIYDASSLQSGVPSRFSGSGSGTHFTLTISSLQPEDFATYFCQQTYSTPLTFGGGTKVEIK', 'nM', 0.441),
  ('H4H10876P (antibody, human IgG4, V domains shown, H4H prefix = human IgG4 Fc) VH: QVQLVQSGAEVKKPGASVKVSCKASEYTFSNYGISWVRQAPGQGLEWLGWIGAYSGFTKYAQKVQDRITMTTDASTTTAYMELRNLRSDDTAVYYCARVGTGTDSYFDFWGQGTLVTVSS VL: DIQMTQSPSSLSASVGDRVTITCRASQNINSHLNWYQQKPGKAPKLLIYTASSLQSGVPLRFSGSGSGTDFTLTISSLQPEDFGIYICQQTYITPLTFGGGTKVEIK', 'nM', 0.243);

# input Which Kd is listed for H4H10863P (antibody, human IgG4, V domains shown, H4H prefix = human IgG4 Fc) VH: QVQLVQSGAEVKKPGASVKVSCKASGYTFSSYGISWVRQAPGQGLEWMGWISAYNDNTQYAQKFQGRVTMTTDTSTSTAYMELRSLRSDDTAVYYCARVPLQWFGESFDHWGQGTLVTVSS VL: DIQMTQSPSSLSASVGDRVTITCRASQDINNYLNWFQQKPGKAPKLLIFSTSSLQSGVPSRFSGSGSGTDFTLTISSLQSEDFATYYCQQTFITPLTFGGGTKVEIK ?
# output 1.14

# input What value of Kd has been reported for the following binder? H4H10907P (antibody, human IgG4, V domains shown, H4H prefix = human IgG4 Fc) VH: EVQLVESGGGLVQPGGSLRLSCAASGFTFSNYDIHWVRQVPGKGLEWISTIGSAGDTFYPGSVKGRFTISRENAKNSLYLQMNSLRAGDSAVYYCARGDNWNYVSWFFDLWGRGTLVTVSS VL: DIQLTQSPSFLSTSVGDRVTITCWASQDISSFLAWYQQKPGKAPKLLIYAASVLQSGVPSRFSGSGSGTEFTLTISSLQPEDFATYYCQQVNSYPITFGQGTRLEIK
# output 137

# input Fill in the blank: the reported Kd of H4H10897P (antibody, human IgG4, V domains shown, H4H prefix = human IgG4 Fc) VH: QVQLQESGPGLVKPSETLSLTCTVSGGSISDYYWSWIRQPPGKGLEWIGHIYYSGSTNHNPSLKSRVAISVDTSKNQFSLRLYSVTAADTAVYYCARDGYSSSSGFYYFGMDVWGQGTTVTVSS VL: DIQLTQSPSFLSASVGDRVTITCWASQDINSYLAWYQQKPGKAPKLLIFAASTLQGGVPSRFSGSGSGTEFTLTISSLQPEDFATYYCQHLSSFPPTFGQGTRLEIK is ____.
# output 36.2

The measured values listed here are drawn from patent US20160083466A1.
